Test system: HCT-15 colon
Procedure Summary: NCI tumour cell line growth inhibition, 48 h
# TGI listing for each entry below

// worked examples, TGI included
> print(dat)
                                   compound    result
1  Cc1ccc(N2C(=O)/C(=C3\Sc4c(nc(C)[nH]c4=O)N3c3ccccc3)SC2=S)cc1  > 100 µM
2  Cc1cc(=Nc2ccc3c(c2)c(N)cc(C)[n+]3C)nc(N)n1C  > 100 µM
3       COc1ccc(/C=C2\N=C3SC=C(N)N3C2=O)cc1   3.98 µM
4  C[Se]C(=O)CC1=C2C=C(F)C=CC2/C(=C\c2ccc(S(C)=O)cc2)C1C (stereo not given)   1.21 µM

[Q] Quick one: TGI for CCOC(=O)c1nc2cc(C(F)(F)F)ccc2nc1Nc1ccc(Cl)c(Cl)c1 ?
[A] > 100 µM

[Q] Quick one: TGI for Cn1c(O)c(C(=O)Nc2ccc([N+](=O)[O-])cc2)c(=O)n(C)c1=S ?
[A] 7.02 µM

[Q] Quick one: TGI for COc1cc(Br)c(CC2=NCCc3cc(OC)c(OC)cc32)cc1OC ?
[A] > 100 µM

[Q] Quick one: TGI for Nc1ncc(Cc2nc3ccccc3s2)s1 ?
[A] > 100 µM

[Q] Quick one: TGI for C[N+]1(C)CN(c2ccccc2)C2(CCN(CCCC(=O)c3cccs3)CC2)C1=O ?
[A] > 100 µM

[Q] Quick one: TGI for O=C1C2=C(c3ccccc31)C(c1ccccc1Cl)N1C(=O)CSC1=N2 (stereo not given) ?
[A] > 100 µM

---

# TGI listing for each entry below
Tested on: NCI-H522 lung
Procedure Summary: NCI tumour cell line growth inhibition, 48 h
Write the number in µM without appending the unit.

Compound	Assayed System	U	TGI
O=c1c([Se]c2coc3ccccc3c2=O)coc2ccccc12	NCI-H522 lung	µM	32.5

Attention now shifts to the item below.
[Q] Quick one: TGI for C[C@H]1[C@@H](OCC(CO[C@H]2O[C@@H]3O[C@@]4(C)CC[C@H]5[C@H](C)CC[C@@H]([C@H]2C)[C@@]35OO4)=NOCC(=O)O)OC2O[C@@]3(C)CC[C@H]4[C@H](C)CC[C@@H]1[C@@]24OO3 (some centres undefined) ?
[A] 11.4

---

Tested on: SNB-19 CNS
Procedure Summary: NCI tumour cell line growth inhibition, 48 h
# TGI listing for each entry below
Write the number in µM without appending the unit.

// worked examples, TGI included
> print(dat)
                                   compound  readout.number
1  O=C(NNS(=O)(=O)c1cc(C(F)(F)F)cc(C(F)(F)F)c1)c1cnn(-c2ccc(Cl)cc2)c1C(F)(F)F            49.7
2    O=c1c([Se]c2coc3ccccc3c2=O)coc2ccccc12            27.4
3  CC(C)[Si]1(C(C)C)OCC2OC(n3ccc(=O)[nH]c3=O)C(O)(CO)C2O[Si](C(C)C)(C(C)C)O1 (stereo not given)            28.9

Attention now shifts to the item below.
[Q] Quick one: TGI for COc1ccc(/C=C2\COc3ccc(-c4ccccc4)cc3C2=O)cc1O ?
[A] 17.2

---

Tested on: SW-620 colon
Procedure Summary: NCI tumour cell line growth inhibition, 48 h; in the data active means GI50 below about 0.43 µM; inactive means the rest
Mark one answer only. Choices: True for active, False for inactive

Example entries begin here.
> print(dat)
                                   molecule  discrete.label
1  CC(=O)N1CC(F)(F)c2c(Sc3ncc(N4CCC5(CC4)COC[C@H]5N)nc3N)cccc21           False
2  COc1ccc2c3c(c(OCCCN(C)C)nc2c1)-c1ccc(Cl)cc1C3=O           False
3    N#Cc1nc(-c2ccccc2)oc1S(=O)(=O)N1CCOCC1           False
4  Cn1cnc([N+](=O)[O-])c1Sc1ncnc2c1ncn2C1OC(CO)C(O)C1O (stereo unspecified)           False
5  Fc1ccc(-c2ncn(C3CCNCC3)c2-c2ccnc(Oc3cccc(F)c3)n2)cc1           False
6  COc1ccc(/C=C\c2cc(OC)c(OC)c(OC)c2)c(NS(=O)(=O)c2ccc(C)cc2)c1O            True
7  COc1ccc(/C=C2\COc3ccc(-c4ccccc4)cc3C2=O)cc1O           False
8  COc1ccccc1-n1c(SCc2cc(OC)c(OC)c(OC)c2)nc2ccc(Cl)cc2c1=O           False

[Q] Which outcome was assigned to CCSC1=CC(=O)c2ccccc2C1=O in this test?
[A] False

[Q] Which outcome was assigned to O=Nc1c(O)ccc2ccccc12 in this test?
[A] False

[Q] Which outcome was assigned to COc1ccc(/C=C2\N=C3SC=C(N)N3C2=O)cc1 in this test?
[A] False

Where these numbers come from: PubChem BioAssay (NCI)
